These entries and their values trace back to ChEMBL document CHEMBL1201862.

molecular target: Carboxy-terminal domain RNA polymerase II polypeptide A small phosphatase 1 (Homo sapiens, UniProt Q9GZU7); test: CTDSP1 inhibitors, concentration-response, biochemical, absorbance readout, ultra-high-throughput screen actives (AID 540297); type: functional
Sequence (Q9GZU7 whole entry, the tested form may be a part): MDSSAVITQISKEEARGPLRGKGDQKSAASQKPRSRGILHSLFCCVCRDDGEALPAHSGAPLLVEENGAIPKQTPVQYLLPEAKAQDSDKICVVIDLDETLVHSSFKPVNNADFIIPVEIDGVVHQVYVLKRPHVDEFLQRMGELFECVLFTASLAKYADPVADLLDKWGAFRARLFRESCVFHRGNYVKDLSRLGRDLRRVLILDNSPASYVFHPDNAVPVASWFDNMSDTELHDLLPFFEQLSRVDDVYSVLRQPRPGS
Calls of active or inactive are those of the source.
Assignment: determine reported IC50 for the given compounds.

Please review the following examples before continuing.
compound | IC50
Cc1ccc(NC(=O)COc2ccc(/C=N\NC(=O)c3cccnc3)cc2)cc1C | 10 µM (active)
CC(C)(C)C(=O)O/N=C1/C(=O)N(c2ccccc2)c2ccccc21 | 7.51 µM (active)
O=c1cc(CSc2nnc(-c3cccs3)n2Cc2ccccc2)nc2sc3ccccc3n12 | 5.42 µM (active)
O=C(Nc1cccc(S(=O)(=O)NC2=NCCCCC2)c1)C1COc2ccccc2O1 (stereo not given) | 5.75 µM (active)
O=C(Nc1ccc(-c2nc3ccccc3s2)c(O)c1)C1=COCCO1 | 3.39 µM (active)

Return reported IC50 values for all items listed beneath this line.
1. COc1ccccc1-n1cnc2c(c1=O)c1nc3ccccc3nc1n2-c1ccc(C)c(C)c1
2. C[N+]1(C)CC2([N+](=O)[O-])CC=C(Oc3ccccc3)C([N+](=O)[O-])(C2)C1 (stereo not given)
3. CCOC(=O)N1CCC(N2Cc3cccc(C(=O)NCc4ccc5c(c4)OCO5)c3C2=O)CC1
4. CCC1=NN2C(=N)/C(=C\c3ccc(OCc4cc(=O)n5nc(CC)sc5n4)c(OC)c3)C(=O)N=C2S1
5. O=C1N=C(Nc2ccc(Cl)cc2)/C(=C/c2ccco2)S1

Result:
1: 7.53 µM (active); 2: 6.82 µM (active); 3: 15 µM (active); 4: 5.99 µM (active); 5: 1.86 µM (active)

###

Assignment: determine reported EC50 for the given compounds.
tested on: Streptococcus; experiment: GAS UMAA2166 growth inhibition – luminescence, BacTiterGlo, counter-screen for streptokinase expression inhibitor project, dose response (AID 1915); assay type: functional, organism-based;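 also: potency for reduction of bacterial viability or growth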
Active and inactive are the calls of the source.

compound | readout-type | observed-result
COc1ccc(-c2nnc(NC(=O)C3CCCN3S(=O)(=O)c3cccs3)o2)cc1 (stereo not drawn) | EC50 | > 150 µM (not active)
CN1c2ccccc2C(C)(C)C12C=Nc1c(ccc3ccccc13)O2 (stereo not drawn) | EC50 | > 150 µM (not active)
CCN1C(=O)/C(=C\c2ccc(-c3ccc([N+](=O)[O-])cc3OC)o2)S/C1=N\c1cccc(C(=O)O)c1 | EC50 | 8.58 µM (active)
CCCCCn1c(CN2CCN(c3cc(Cl)ccc3C)CC2)nc2c1c(=O)[nH]c(=O)n2C | EC50 | 5.85 µM (active)
CC(C)(C)c1cc(C(=O)N/N=C/c2ccc([N+](=O)[O-])s2)[nH]n1 | EC50 | 15.8 µM (active)
O=c1c2cc(N3CCOCC3)ccc2[nH]c(=S)n1CCc1ccccc1 | EC50 | 12.3 µM (active)
O=C(/C=C/c1ccc([N+](=O)[O-])o1)NNC(=O)c1ccc(F)cc1 | EC50 | 10.3 µM (active)

Shift focus to the following entry.
Problem: Item `O=C(Nc1ccc2[nH]c(-c3ccc4[nH]cnc4c3)nc2c1)c1cccs1` : provide EC50
Result: 48.4 µM (inconclusive)

###

biological target: G-protein coupled receptor 55 (Homo sapiens, UniProt Q9Y2T6); experiment: selective activators of receptor GPR55 – imaging, U2OS cells, beta-arrestin-GFP redistribution, primary screen (AID 1961); type: functional
Sequence (Q9Y2T6 whole entry): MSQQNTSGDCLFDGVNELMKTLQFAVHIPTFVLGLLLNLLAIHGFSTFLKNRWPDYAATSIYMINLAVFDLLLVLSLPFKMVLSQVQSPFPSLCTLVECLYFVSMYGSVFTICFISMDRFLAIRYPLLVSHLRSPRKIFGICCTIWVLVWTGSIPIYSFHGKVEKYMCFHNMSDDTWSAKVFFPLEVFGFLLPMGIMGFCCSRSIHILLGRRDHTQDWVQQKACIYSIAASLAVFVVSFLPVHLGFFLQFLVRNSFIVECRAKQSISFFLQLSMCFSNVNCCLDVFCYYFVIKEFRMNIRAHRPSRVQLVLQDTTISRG
Activity calls are given as the source filed them.
Select the correct class. Options are active, inactive and nothing else.

Before answering, review these 3 worked examples.
line-notation | discrete-label
CC(/C=N/NC(=O)c1nnn(-c2nonc2N)c1CN1CCCCC1)=C\c1ccccc1 | active
CC1CCN(Cc2c(C(=O)N/N=C/c3ccc(OC(C)C)cc3)nnn2-c2nonc2N)CC1 | active
CCOC(=O)C(=Cc1ccc(-c2ccsc2C(=O)OC)o1)C(=O)OCC | inactive

Turning now to a further record.
Problem: Give the logged outcome of this assay for the following molecule: `CCCCCn1c(CN2CCN(c3cc(Cl)ccc3C)CC2)nc2c1c(=O)[nH]c(=O)n2C`
Result: active

###

Assignment: determine reported EC50 for the given molecules.
assay: Luminescence Cell-Based Dose Response HTS to Identify Activators of Luciferase Translation or Activity in H4 […] Cells. [Related pubchem assays: 1829 (Project Summary), 1814 (Primary HTS)]; assay type: functional
The source made the active and inactive calls.

Please review the following examples before continuing.
line-notation | EC50
COc1ccc(/N=C2/C(=N\c3ccc(OC)cc3)N(c3ccccc3)C(=S)N2C(=O)c2ccc(Cl)cc2)cc1 | 47.3 µM (active)
CC(=O)c1cnc2cc(-c3ccc(C)cc3)nn2c1C | < 0.1 µM (active)
Cc1nc2ccccc2c(=O)n1-c1ccc(Br)cn1 | > 120 µM (not active)

Return reported EC50 values for all items listed beneath this line.
1. O=C(O)c1ccc(Cn2cnc3scc(-c4ccccc4)c3c2=O)cc1
2. CCSc1n[nH]c2c3cccc(C)c3nc-2n1

Result:
1: > 120 µM (not active); 2: 2.08 µM (active)

###

biological target: Short transient receptor potential channel 4 (Mus musculus); experiment: block of DAMGO-driven TRPC4 calcium entry – cell-based, HEK293 TRPC4/mu-opioid, Fluo-4 calcium, dose response (AID 434942); format: functional;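 also: potency of inhibitors blocking the TRPC4 calcium response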
Sequence (Q9QUQ5 whole entry): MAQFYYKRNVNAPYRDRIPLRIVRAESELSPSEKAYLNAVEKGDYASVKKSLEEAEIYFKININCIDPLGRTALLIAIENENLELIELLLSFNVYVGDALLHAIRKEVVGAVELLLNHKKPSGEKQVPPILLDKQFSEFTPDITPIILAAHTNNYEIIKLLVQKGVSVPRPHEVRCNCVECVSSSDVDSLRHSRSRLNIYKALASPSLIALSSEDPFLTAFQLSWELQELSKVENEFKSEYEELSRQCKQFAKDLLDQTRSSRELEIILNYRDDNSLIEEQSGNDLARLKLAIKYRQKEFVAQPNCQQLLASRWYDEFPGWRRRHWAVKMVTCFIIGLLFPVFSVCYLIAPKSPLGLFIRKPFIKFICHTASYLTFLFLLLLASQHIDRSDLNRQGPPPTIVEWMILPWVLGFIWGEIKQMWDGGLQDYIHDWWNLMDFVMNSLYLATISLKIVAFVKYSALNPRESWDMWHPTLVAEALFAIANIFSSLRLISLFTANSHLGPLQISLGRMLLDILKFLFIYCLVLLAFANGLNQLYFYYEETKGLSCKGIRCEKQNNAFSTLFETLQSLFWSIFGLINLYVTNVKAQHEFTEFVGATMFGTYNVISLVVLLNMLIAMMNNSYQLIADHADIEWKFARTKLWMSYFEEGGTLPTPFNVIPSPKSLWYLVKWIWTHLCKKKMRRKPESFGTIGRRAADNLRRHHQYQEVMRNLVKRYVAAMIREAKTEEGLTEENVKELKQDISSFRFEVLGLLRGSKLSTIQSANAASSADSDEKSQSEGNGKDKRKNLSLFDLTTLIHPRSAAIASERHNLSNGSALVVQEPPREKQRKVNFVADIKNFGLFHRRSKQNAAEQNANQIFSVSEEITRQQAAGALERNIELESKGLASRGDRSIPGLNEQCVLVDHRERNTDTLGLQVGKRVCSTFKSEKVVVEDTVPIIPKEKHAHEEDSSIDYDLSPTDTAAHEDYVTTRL
Calls of active or inactive are those of the source.
readout-type: EC50

compound | EC50
c1ccc(Cn2c(NCc3ccco3)nc3ccccc32)cc1 | 596 nM (active)
CC(C)Oc1cccc(C(=O)C2CCCN(Cc3cnn(C(C)C)c3)C2)c1 (configuration not stated) | 2110 nM (active)

Return reported EC50 values for all items listed beneath this line.
1. Oc1ccc(Nc2nc(N3CCCC3)c3ccccc3n2)cc1
2. CCOC(=O)C1(Cc2ccccc2C)CCCN(Cc2ccc(NC(C)=O)cc2)C1 (configuration not stated)
3. O=C(CN1CCCCCC1)N1c2ccccc2Sc2ccccc21

Result:
1: 5960 nM (active); 2: 3350 nM (active); 3: 1680 nM (active)

Return reported EC50 values for all items listed beneath this line.
1. COc1ccc(CN(C(=O)c2snc(C(N)=O)c2N)C(CC(C)C)C(=O)NC2CCCCC2)cc1 (configuration not stated)
2. COc1ccc(OC)c(CN2CCCC(C(=O)c3sccc3C)C2)c1 (configuration not stated)

Result:
1. 1330 nM (active)
2. 1880 nM (active)

###

Molecular target: Galanin receptor type 3 (Homo sapiens, UniProt O60755)
Sequence (O60755 whole entry): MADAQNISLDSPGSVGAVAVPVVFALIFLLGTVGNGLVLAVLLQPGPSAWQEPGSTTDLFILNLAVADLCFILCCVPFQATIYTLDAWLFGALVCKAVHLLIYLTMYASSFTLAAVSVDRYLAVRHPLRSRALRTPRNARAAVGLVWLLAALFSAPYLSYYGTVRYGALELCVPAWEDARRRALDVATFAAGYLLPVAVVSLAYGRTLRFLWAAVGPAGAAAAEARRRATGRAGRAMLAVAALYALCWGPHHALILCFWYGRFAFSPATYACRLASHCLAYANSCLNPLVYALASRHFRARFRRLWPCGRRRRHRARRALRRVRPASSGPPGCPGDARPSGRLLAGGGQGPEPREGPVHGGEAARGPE
Experiment: Fluorescence-based cell-based primary high throughput dose response assay to identify antagonists of the Galanin Receptor 3 (GalR3).
Assay type: functional
Active and inactive are the calls of the source.
Select the correct class. Options are active, inactive and nothing else.

Before answering, review these 3 worked examples.
compound | discrete-label
O=c1cc(CSc2nnc(-c3cccs3)n2Cc2ccccc2)nc2sc3ccccc3n12 | active
NC(=O)c1cn(C2OC(CO)C(O)C2O)c2ncnc(N)c12 (centres undefined) | active
Cc1cc(NC(=O)Cc2ccccc2)c2ccccc2n1 | active

Problem: Give the logged outcome of this assay for the following compound: O=C(NCC1CCN(Cc2ccc(Cl)cc2)CC1)C1CCCN(c2ncnc3c2nc2n3CCCCC2)C1 (centres undefined)
Result: inactive

###

target: Voltage-dependent T-type calcium channel subunit alpha-1H (Homo sapiens, UniProt O95180); assay type: functional;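 also: channel activity triggered by adding a high calcium stimulation buffer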
Sequence (O95180 whole entry): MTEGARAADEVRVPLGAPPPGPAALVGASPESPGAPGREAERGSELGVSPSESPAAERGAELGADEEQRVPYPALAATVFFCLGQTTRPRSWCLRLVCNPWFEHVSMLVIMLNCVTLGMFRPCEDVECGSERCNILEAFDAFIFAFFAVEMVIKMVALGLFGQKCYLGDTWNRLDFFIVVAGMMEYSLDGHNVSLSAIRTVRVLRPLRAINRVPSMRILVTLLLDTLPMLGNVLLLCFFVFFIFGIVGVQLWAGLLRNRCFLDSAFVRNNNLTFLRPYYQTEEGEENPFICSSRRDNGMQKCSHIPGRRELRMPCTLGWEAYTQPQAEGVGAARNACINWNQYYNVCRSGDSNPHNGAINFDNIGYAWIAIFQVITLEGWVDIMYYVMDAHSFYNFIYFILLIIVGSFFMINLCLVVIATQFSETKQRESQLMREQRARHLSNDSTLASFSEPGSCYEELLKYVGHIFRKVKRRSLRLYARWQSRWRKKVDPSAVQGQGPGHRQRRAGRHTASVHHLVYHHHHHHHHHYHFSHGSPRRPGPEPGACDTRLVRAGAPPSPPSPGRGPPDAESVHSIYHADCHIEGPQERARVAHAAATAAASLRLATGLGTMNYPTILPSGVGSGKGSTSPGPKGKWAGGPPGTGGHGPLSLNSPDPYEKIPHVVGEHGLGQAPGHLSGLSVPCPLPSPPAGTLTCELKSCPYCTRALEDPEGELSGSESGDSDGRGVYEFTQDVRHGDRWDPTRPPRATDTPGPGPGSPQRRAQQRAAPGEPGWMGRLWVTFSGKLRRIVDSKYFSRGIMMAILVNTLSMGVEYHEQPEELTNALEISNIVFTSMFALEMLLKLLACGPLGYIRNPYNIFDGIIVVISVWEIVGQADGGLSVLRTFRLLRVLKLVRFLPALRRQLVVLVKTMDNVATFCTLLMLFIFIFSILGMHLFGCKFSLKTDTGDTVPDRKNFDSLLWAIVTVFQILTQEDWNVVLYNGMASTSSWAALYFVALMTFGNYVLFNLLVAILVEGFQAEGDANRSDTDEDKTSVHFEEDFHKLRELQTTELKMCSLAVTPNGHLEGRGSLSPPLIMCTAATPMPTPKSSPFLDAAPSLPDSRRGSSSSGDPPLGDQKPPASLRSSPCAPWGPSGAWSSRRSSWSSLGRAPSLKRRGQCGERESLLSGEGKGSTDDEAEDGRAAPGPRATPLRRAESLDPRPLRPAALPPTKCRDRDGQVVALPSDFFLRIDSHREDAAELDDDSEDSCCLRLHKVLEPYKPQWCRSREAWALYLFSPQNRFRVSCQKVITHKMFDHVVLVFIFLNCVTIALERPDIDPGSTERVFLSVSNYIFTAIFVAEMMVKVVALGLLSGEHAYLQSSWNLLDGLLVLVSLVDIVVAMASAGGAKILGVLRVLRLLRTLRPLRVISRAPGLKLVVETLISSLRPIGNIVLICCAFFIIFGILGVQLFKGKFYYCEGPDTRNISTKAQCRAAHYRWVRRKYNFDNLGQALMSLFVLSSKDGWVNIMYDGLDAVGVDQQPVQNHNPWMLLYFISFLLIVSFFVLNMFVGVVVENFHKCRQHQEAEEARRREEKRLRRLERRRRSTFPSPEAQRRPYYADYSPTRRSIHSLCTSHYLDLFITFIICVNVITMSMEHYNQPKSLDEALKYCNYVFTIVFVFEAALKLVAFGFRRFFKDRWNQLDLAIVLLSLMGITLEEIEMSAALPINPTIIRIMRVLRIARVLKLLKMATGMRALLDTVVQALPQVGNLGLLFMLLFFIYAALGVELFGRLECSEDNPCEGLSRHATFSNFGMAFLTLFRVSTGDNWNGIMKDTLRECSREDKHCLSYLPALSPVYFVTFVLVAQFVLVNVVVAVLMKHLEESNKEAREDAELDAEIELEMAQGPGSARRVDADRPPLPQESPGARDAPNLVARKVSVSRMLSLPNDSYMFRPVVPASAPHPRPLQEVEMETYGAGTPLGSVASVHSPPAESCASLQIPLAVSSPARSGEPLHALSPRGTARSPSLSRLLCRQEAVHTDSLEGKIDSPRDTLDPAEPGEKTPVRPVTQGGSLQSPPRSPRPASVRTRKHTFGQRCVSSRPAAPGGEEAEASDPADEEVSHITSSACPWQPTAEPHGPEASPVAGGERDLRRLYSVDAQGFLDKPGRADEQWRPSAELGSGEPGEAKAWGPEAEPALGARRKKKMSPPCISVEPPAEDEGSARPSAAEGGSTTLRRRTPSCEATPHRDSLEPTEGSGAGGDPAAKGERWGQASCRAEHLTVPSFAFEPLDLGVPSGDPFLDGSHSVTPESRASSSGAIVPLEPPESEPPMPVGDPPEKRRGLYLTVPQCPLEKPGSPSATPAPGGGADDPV
Active and inactive are the calls of the source.
Assignment: determine reported EC50 for the given compounds.

compound | observed-result
COc1ccc(CNc2nc3ccccc3n2Cc2ccccc2)cc1OC | 7.3 µM (active)
CCc1ccc(-c2nc(CN3CCCC(C(=O)NCCc4ccc(OC)c(OC)c4)C3)c(C)o2)cc1 (configuration not stated) | 5.02 µM (active)
CCCOc1ccccc1N=C(NC(=O)COc1ccc(OC)cc1)Nc1nc(C)cc(C)n1 | 8.53 µM (active)
CCCCCn1c(CN2CCN(c3cc(Cl)ccc3C)CC2)nc2c1c(=O)[nH]c(=O)n2C | 5.57 µM (active)
COc1cccc(N(C(=O)Cn2nnc(-c3ccc(C)cc3)n2)C(C(=O)NC(C)(C)C)c2c[nH]c3ccccc23)c1 (configuration not stated) | 8.67 µM (active)
Cc1snc(S(=O)(=O)/C(C#N)=N/Nc2cccc(C(F)(F)F)c2)c1C#N | 7.53 µM (active)

Problem: Item Cc1cc(C)c(NC(=O)C(C)c2cccc(C(=O)c3ccccc3)c2)c(C)c1 (configuration not stated) : provide EC50
Result: 3.26 µM (active)
